Just for reference, patent US20160237162A1 is where these values come from.

BT474 pAKT assay % Max inhibition by entry:
biological target: human HER3 on human cancer cells (human, UniProt P21860 20-1342); test: cell-based or functional assay
Show the value, then the unit it is measured in.

{"binder": "Clone 16 antibody (CL16), human IgG1 (antibody, V domains shown, also called parental IgG; Clone 16-PA) VH: EVQLLESGGGLVQPGGSLRLSCAASGFTFSYYYMQWVRQAPGKGLEWVSYIGSSGGVTNYADSVKGRFTISRDNSKNTLYLQMNSLRAEDTAVYYCARVGLGDAFDIWGQGTMVTVSS VL: QYELTQPPSASGTPGQRVTMSCSGSSSNIGLNYVSWYQQLPGTAPKLLISRNNQRPSGVPDRFSGSKSGTSASLAISGLRSEDEADYYCAAWDDSLSGEVFGGGTKLTVL", "property_name": "BT474 pAKT assay % Max inhibition", "experimental_value": "64%"}
{"binder": "2C2 monoclonal antibody, human IgG1 (antibody, V domains shown) VH: EVQLLESGGGLVQPGGSLRLSCAASGFTFSYYYMQWVRQAPGKGLEWVSYIGSSGGVTNYADSVKGRFTISRDNSKNTLYLQMNSLRAEDTAVYYCARVGLGDAFDIWGQGTMVTVSS VL: QSVLTQPPSASGTPGQRVTISCSGSLSNIGLNYVSWYQQLPGTAPKLLISRNNQRPSGVPDRFSGSKSGTSASLAISGLRSEDEADYYCAAWDDSPPGEAFGGGTKLTVL", "property_name": "BT474 pAKT assay % Max inhibition", "experimental_value": "61%"}
{"binder": "2F10 antibody, human IgG1 (antibody, V domains shown) VH: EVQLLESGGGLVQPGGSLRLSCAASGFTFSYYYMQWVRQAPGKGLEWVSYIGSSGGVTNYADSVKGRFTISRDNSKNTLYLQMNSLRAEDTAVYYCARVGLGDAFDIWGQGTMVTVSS VL: QSVLTQPPSASGTPGQRVTISCSGSSSNIGLNYVSWYQQLPGTAPKLLISRNNQRPSGVPDRFSGSKSGTSASLAISGLRSEDEADYYCAAWDDSPSGEAFGGGTKLTVL", "property_name": "BT474 pAKT assay % Max inhibition", "experimental_value": "62%"}
{"binder": "1A4 antibody, human IgG1 (antibody, V domains shown, IgG1, lambda) VH: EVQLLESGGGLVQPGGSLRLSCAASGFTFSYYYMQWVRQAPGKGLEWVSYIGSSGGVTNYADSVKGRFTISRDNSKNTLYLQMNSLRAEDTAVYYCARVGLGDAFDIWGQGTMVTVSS VL: QSVLTQPPSASGTPGQRVTISCSGSSSNIGLNYVSWYQQLPGTAPKLLISRNNQRPSGVPDRFSGSKSGTSASLAISGLRSEDEADYYCAAWDDSPPGEAFGGGTKLTVL", "property_name": "BT474 pAKT assay % Max inhibition", "experimental_value": "62%"}

Request: Can you share its BT474 pAKT assay % Max inhibition? I mean this binder: 3E1 antibody, human IgG1 (antibody, V domains shown, IgG1, lambda) VH: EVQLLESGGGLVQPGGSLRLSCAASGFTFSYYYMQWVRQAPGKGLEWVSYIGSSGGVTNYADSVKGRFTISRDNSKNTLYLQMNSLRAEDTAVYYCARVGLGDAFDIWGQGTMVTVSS VL: QSVLTQPPSASGTPGQRVTISCRGSSSNIGLNYVSWYQQLPGTAPKLLISRNNQRPSGVPDRFSGSKSGTSASLAISGLRSEDEADYYCAAWDDSPPGEAFGGGTKLTVL
Response: 66%
